Assay: yeast display, Sf9 membrane polyspecificity reagent, FACS + sequencing; frameworks hold sequencing errors
MEASURED PARAMETER: polyreactivity (PSR sort gate)

Would you please look over these solved cases?
QVQLVESGGGLVQAGGSLRLSCAASGSTFVWNAMGWSRQAPGKERQLVAAIDSGGSTNYADSVKGRFTISRDNAKNTVYLQMNSLKPEDTAVYYCATDQGYRYLKIYVYGDAFDYWGQGTQVTVSS	low polyreactivity
QVQLVESGGGLVQAGVSLRLSCAASGLTFPGYAMGWYRQATGKQRELVAAISRRGGSTYYADSVKGRFTISRDNEKNTVYLKMNSLKTEDTAVYYCNAVIRRYFVPSSYDYWGQGTQVTVSS	high polyreactivity
QVQIVESGGGLVQAGGSLRLSCAASGRTFLVNSMGWYRQAPGKEMELVAVITNGGSTYADSVKGRFTISRDNAKNTVYLQMNSLKPEDTAVYNCAARGNRWRSPSGSPYYYWGQGTQVTVSS	high polyreactivity
QVQLVESGGGLVQAGGSLRLSCAASGGTFKFYAMGWYRQAPGKERELVAAISWSGTSTYYADSVKGRFTISRDNAKNTVYLQMNSLKPEDTAVYYCAADKRLRGHGYDYWGQGTQVTVSS	high polyreactivity
QVQLVESGGGIVQAGGSLRLSCAASGIIFWDNAMGWYRQAPGKERELVASINYSGGSTYYADSVKGRFTISRDNAKNTVYLQMNSLKPEDTAVYYCAARTVTLDDWDYAYDYWGQGTQVTVSS	low polyreactivity

polyreactivity (PSR sort gate) for "QVQLVESGGGLVQAGGSLRLSCAASGRIYVYAMGWYRQAPGKEREMVAAITASDGSTYYADSVKGRFTISRDNAKNTVYLQMNSLKPEDTAVYYCAADIYEHNYYGYYYWGQGTKVTVSS" is high polyreactivity

polyreactivity (PSR sort gate) for "QVQLVESGGGLVQAGGSLRLSCAASGSIFGGNAMGWYRPAPGTVRELVAAITSSGGSTYYADSVKGRFTMSRDNAKNTVYLQMNSLNPEDTAVYYSNKAYPGRTYDYWGQGTQVTVSS" is high polyreactivity

polyreactivity (PSR sort gate) for "QVQLVESGGGLVQAGGSLRLSCAASGFIFFTNTMGWYRQAPGKEWELVAAINSNGGRTYYADSVKGRFTISRDNAKNTVYLQMNSLKPEDTAVYYCAARSVGGVARLDYWGQGTQVTVSS" is low polyreactivity

polyreactivity (PSR sort gate) for "QVQLVESGGGLVQAGGSLLLSCAASGRIFIDYAMGLYRQAPGKERELVATISESGGTTYYADSVKGRFTISRDNGKNTVYLQMNSLKPEDTAVYYCAAKRLCRPYDYWGQGTQVTVSS" is low polyreactivity

polyreactivity (PSR sort gate) for "QVQLVESGGGLVQAGGSLRLSCAASGSIFATNAMGWYRQAPGKERELGASSSSGGGSTYYADSVKGRFTISRDNAKNTVYLQLNSLKPEDTADSYCARRIGPGSRPSWLETWRYPYDYWGQGTQVTVSS" is low polyreactivity

polyreactivity (PSR sort gate) for "QVQLVESGGGLVQAGGSLRLSCAASGVIFGRYAMGWYREAPGKERELVAAISWGGGSTRYADSVKGRFTISRDNAKNTVYLQMNSLKPEDTAVYYCAAYRYWGRTSYSYDYWGQGTQVTVSS" is high polyreactivity

polyreactivity (PSR sort gate) for "QVQLVESGGGLVQAGGSLRLSCAASGSIFPQYAMGWYRQAPGKERELVASITDSGGRTYYADSVKGRFTISRDNAKNTVYLQMHSLKPEDTAVYYCAAVSLWWSDYYFVEYDYWGQGTQVTVSS" is high polyreactivity

polyreactivity (PSR sort gate) for "QVQLVESGGGLVQAGGSLRLSCAASGIIFLKYAMGWYRQAPGKERELVAAISRSGGGTYYADSVKGRFTISRDNAKNTVYLQMNSLKLEDTAVYYCAARGVDRQGYRFYYWGQGTQVTVSS" is high polyreactivity

###

Experiment: yeast display, Sf9 membrane polyspecificity reagent, FACS + sequencing; frameworks hold sequencing errors
MEASURED PARAMETER: polyreactivity (PSR sort gate)

Would you please look over these solved cases?
QVQLVESGGGLVQAGGSLRLSCAASGIFVGYTMGWYRQAPGKERELVAAIRWTDGSTYYADSVKGRFTISRDNAKNTVYLQMISLKPEDTAVYYCAADSHDPARYYYGDEFEDEYWGQGTQVTVSS	low polyreactivity
QVQLVESGGGLVQAGGSLRLSCAASGSTFKSYAMGWYRQAPGKERELVAAINWSGGSTYYADSVKGRFTISRDNAKNTVYLQMTSLKPEDTAVYYCNAVYAVRSYDSWGQGTQVTVSS	high polyreactivity
QVHLVESGGGLVQAGGSLLLSCAASGFTFTAYAMGWYRQAPGKERELVAAISYRGGRTNYAYSVKGRFTISRDNAKNTVYLQMNSLKPEDTAVYYCASRQGISTREMDYWGQGTQVTVSS	high polyreactivity
QVQLVESGGGLVQAGGRLRLSCAASGSIIISNGMGWSRQAPGKERELVATISWIGGSTYYADSVKGRFTISRDNAKNTVYLQMNSLKPEDTAVYYCAADVVLARPFEGDYWGQGTQVTVSS	low polyreactivity

Shifting focus to the sequence that follows.
polyreactivity (PSR sort gate) for "QVQLVESGGGLDQAGGSLRLSCAASGRILTGYAMGWYRQAPVKVRELVAAISNDTDSTHYADSVKGRFTISRDNAKKTVYLQMNSLKPEATAVYYCATDAPLQKRWRRFDYWGQGTHVTVSS" is low polyreactivity

###

Assay: yeast display, Sf9 membrane polyspecificity reagent, FACS + sequencing; frameworks hold sequencing errors
MEASURED PARAMETER: polyreactivity (PSR sort gate)

Would you please look over these solved cases?
QVQLVESVGGLVQAGGSLRLSCDASGGIFWVYAMGWYRQAPGKERELVAAISNSDTSTSYADSVKGRFTISRDNAKNTVYLQMNSLKPEDTAVYYCNADSPSLSGDYWGQGTQVTVSS	low polyreactivity
QVHLVESGGGLVQAGGSLRLSCAASGIIFEYNAMGWYRQAPGKERELVAAITSTDNTNYADSVKGRFTISRDNAKKTVYLQMNILIPEDTAVYYCNTDYWLSVVYAMDYWGQGTQVTVSS	low polyreactivity
QVQLVESGGGLVQAGGSLRLSCAASGIIFYANVMGLYRQAPGKERELVAGISRNGGRTYYADSVKGRFTISRDNAKNTVYLQMNSLKPADTAVYYCAALGSYTSIFDYWGQGTQVTVSS	high polyreactivity
QVQLVESGGGLVQAGGSLRLSCAASGRIFYGYAMGWYIHAPGKERELVAAITYSGGITYYADSVKGRFTISRDNAKNTVYLQMNSLKPEDTAVYYCATSKSSVTGPDLDYWGQGTQVTVSS	high polyreactivity

Shifting focus to the sequence that follows.
polyreactivity (PSR sort gate) for "QVQLVESGGGLVQAGCSLRLSCAASGSIFGFYAMGWYRQAPGKERELVATIRSSGGNTYYADSVKGRFTISRDNAKNTVYLEMNSLKPEDTGVFYCAASFLIRAYVDRNDYWGLGTQVTVSS" is low polyreactivity

###

Assay: yeast display, Sf9 membrane polyspecificity reagent, FACS + sequencing; frameworks hold sequencing errors
MEASURED PARAMETER: polyreactivity (PSR sort gate)

Would you please look over these solved cases?
QVQLVESGGGLVQAGGSLRLSCAASGSTFDVNAMGWYRQAPGKERELVAAITQSGGSTFYADSVKGRFTISRDNAKNTVYLQMNSLKPEDTAVYYWGQGTQVTVSS	low polyreactivity
QVQLAESGGGLVQAGGSLRLSCAASGSTFPRNPMGWYRQAPGKERELVATITSSGGGTYYADSVKGRFTISRDNAKITVYLQMNSLKPEDTAVYYCNADGPAGDAFDYWGQGTQVTVSS	low polyreactivity
QVQLVESGGGLVQAGGSLRLSCAASGFTFAPNPMGWYRPAPGKEWELVAAITRSGGSTYYADSVKGRFTISRDNAKNTVYLQMYSLKPEDTAVYYCNAGRRGSGYVYWGQGTQVTVSS	high polyreactivity
QVQLVESGGGLVQAGGSLRLSCAASGSIFRRYAMGWYRQAPGKERELVAGISSGGYTNYADSVKGRFTISRDNAKNTVYLQMNRLKPEDTAVYYCAAKQYRYVRYRPVDYWGQGTQVTVSS	high polyreactivity
QVQLVESGGGLVQAGGSLRLSCAASGRTFAEYAMGWYRQAPGKERELVAAISKRGGSTYYADSVKGRFTISRDNAKNTVYLQMNSLKPEDTAVYYCNKVNRVPSYGHEVGYWGQGTQVTVSS	high polyreactivity

polyreactivity (PSR sort gate) for "QVQLVESGGGLVQAGGSLRLSCAASGYTFIVNAMGWYRQAPGKERELVAGISYRGGRTFYADSVKGRFTISRDNAKNTVYLQMTSLKPEDTAVYYCAARKTGIPFYNYDYWGQGTQVTVSS" is low polyreactivity

polyreactivity (PSR sort gate) for "QVQLVESGGVLVQAGGSLRLSCAASGSIFRTNVMGWYSQAPGKEREMVASISSDSSTNYADSVKGRFTISRDNEKNTVYLQMNSLKPEDTAVYYCAKDPVVTEHYYWGQGTQVTVSS" is low polyreactivity
